The origin of these recorded values is patent US20220324835A1.

System: T-cell
test-method-notes: CD25 cell surface staining on T-cells co-stimulated with anti-CD3 and anti-CD28 antibody (Biological Example 2)
Assay type: cell-based, human
test-context: Homo sapiens, T-cell, 4 μM compound; primary human total T-cells; baseline = anti-CD3/anti-CD28 stimulated cells without inhibitor; read-out: CD25 staining, Anti-CD3/Anti-CD28 stimulation, fold change over baseline
value-kind: fold induction at 4 µM

[[record]]
compound = "Cn1cnnc1C(F)(F)[C@](C)(F)c1cccc(N2Cc3c(cc(CN4CC(C(F)F)C4)cc3C(F)(F)F)C2=O)c1"
value_kind = "fold induction at 4 µM"
result = "1.31 to 1.5"

[[record]]
compound = "CNCc1ccc(C(=O)Nc2cccc([C@H](C)Cc3nncn3C)c2)nc1C1CC1"
value_kind = "fold induction at 4 µM"
result = "1.51 to 1.75"

[[record]]
compound = "C[C@H](Cc1nncn1C)c1cccc(NC(=O)c2cc3cc(N4CCNCC4)ccc3cn2)c1"
value_kind = "fold induction at 4 µM"
result = "1.01 to 1.3"

[[record]]
compound = "CC(O)c1cc2c(c(C(F)(F)F)c1)CN(c1cccc([C@H](C)Cc3nncn3C)c1)C2=O (stereo partly drawn)"
value_kind = "fold induction at 4 µM"
result = "1.31 to 1.5"

[[record]]
compound = "C[C@H](O)CNc1cc([C@H](C)Cc2nncn2C)cc(N2Cc3c(cccc3C(F)(F)F)C2=O)n1"
value_kind = "fold induction at 4 µM"
result = "1.01 to 1.3"

[[record]]
compound = "Cn1cnnc1CC1(c2cccc(N3Cc4c(cc(CN5CCCC5=O)cc4C(F)(F)F)C3=O)c2)COC1"
value_kind = "fold induction at 4 µM"
result = "1.01 to 1.3"

[[record]]
compound = "CN1CC2CCC(C1)N2c1cc2c(c(C(F)(F)F)c1)CN(c1cccc([C@@](C)(F)C(F)(F)c3nncn3C)c1)C2=O"
value_kind = "fold induction at 4 µM"
result = "1.51 to 1.75"

[[record]]
compound = "C[C@@H](c1cc2c(c(C(F)(F)F)c1)CN(c1cccc(C3(Cc4nncn4C)COC3)c1)C2=O)N1CC[C@H](F)C1"
value_kind = "fold induction at 4 µM"
result = "1.51 to 1.75"

[[record]]
compound = "Cn1cnnc1C(F)(F)[C@](C)(F)c1cccc(N2Cc3c(cc(N4CCNCC4)cc3C(F)(F)F)C2=O)c1"
value_kind = "fold induction at 4 µM"
result = "1.51 to 1.75"

[[record]]
compound = "CC(c1cc2c(c(C(F)(F)F)c1)CN(c1cccc([C@H](C)Cc3nncn3C)c1)C2=O)N1CC[C@H](O)C1 (stereo partly drawn)"
value_kind = "fold induction at 4 µM"
result = "1.51 to 1.75"

[[record]]
compound = "C[C@H](Cc1nncn1C)c1cc(N[C@@H](C)CO)nc(N2Cc3c(cccc3C(F)(F)F)C2=O)c1"
value_kind = "fold induction at 4 µM"
result = "1.01 to 1.3"

[[record]]
compound = "C[C@H](Cc1nncn1C)c1cccc(N2Cc3c(cc(CO)cc3C(F)(F)F)C2=O)c1"
value_kind = "fold induction at 4 µM"
result = "1.31 to 1.5"

[[record]]
compound = "Cn1cnnc1C(F)(F)[C@](C)(F)c1cccc(N2Cc3c(cc(CN4CC(C#N)C4)cc3C(F)(F)F)C2=O)c1"
value_kind = "fold induction at 4 µM"
result = "1.01 to 1.3"

[[record]]
compound = "CC(Cc1nncn1C)c1cc(C2CCC2)cc(N2Cc3c(cccc3C(F)(F)F)C2=O)c1 (stereo not drawn)"
value_kind = "fold induction at 4 µM"
result = "1.01 to 1.3"

[[record]]
compound = "Cc1n[nH]c(C)c1-c1cc2c(c(C(F)(F)F)c1)CN(c1cccc([C@H](C)Cc3nncn3C)c1)C2=O"
value_kind = "fold induction at 4 µM"
result = "> 1.76"


----------
Test system: T-cell
test-method-notes: CD25 cell surface staining on T-cells co-stimulated with anti-CD3 and anti-CD28 antibody (Biological Example 2)
Format: cell-based, human
test-context: Homo sapiens, T-cell, 0.3 μM compound; primary human total T-cells; baseline = anti-CD3/anti-CD28 stimulated cells without inhibitor; read-out: CD25 staining, Anti-CD3/Anti-CD28 stimulation, fold change over baseline
value-kind: fold induction at 0.3 µM

[[record]]
molecule = "Cc1[nH]ncc1-c1cc2c(c(C(F)(F)F)c1)CN(c1cccc([C@H](C)Cc3nncn3C)c1)C2=O"
value_kind = "fold induction at 0.3 µM"
result = "1.31 to 1.5"

[[record]]
molecule = "Cn1cnnc1CC1(c2cccc(NC(=O)c3csc(C4CC4)n3)c2)COC1"
value_kind = "fold induction at 0.3 µM"
result = "1.01 to 1.3"

[[record]]
molecule = "CN(c1cc2c(c(C(F)(F)F)c1)CN(c1cccc([C@@](C)(F)C(F)(F)c3nncn3C)c1)C2=O)[C@@H]1CNC[C@@H]1F"
value_kind = "fold induction at 0.3 µM"
result = "1.01 to 1.3"

[[record]]
molecule = "CN1CCN(c2cc3c(c(C(F)(F)F)c2)CN(c2cccc(C4(Cc5nncn5C)COC4)c2)C3=O)C(=O)C1"
value_kind = "fold induction at 0.3 µM"
result = "1.01 to 1.3"

[[record]]
molecule = "Cn1cnnc1CC1(c2cccc(NC(=O)c3cc(OC(F)F)cc(C4CC4)n3)c2)COC1"
value_kind = "fold induction at 0.3 µM"
result = "1.01 to 1.3"

[[record]]
molecule = "Cn1cnnc1[C@H](F)[C@@](C)(F)c1cccc(N2Cc3c(cc(C4CC4)cc3C(F)(F)F)C2=O)c1 (stereo in doubt)"
value_kind = "fold induction at 0.3 µM"
result = "1.01 to 1.3"

[[record]]
molecule = "Cn1cnnc1CC1(c2cccc(N3Cc4c(cc(CN5CCCC5=O)cc4C(F)(F)F)C3=O)c2)COC1"
value_kind = "fold induction at 0.3 µM"
result = "1.01 to 1.3"

[[record]]
molecule = "C[C@@H](c1cccc(N2Cc3c(cccc3C(F)(F)F)C2=O)c1)C(F)c1nncn1C (stereo in doubt)"
value_kind = "fold induction at 0.3 µM"
result = "1.01 to 1.3"

[[record]]
molecule = "Cn1cnnc1CC1(c2cccc(N3Cc4c(cc(CN5CC(C(=O)O)C5)cc4C(F)(F)F)C3=O)c2)COC1"
value_kind = "fold induction at 0.3 µM"
result = "1.01 to 1.3"

[[record]]
molecule = "C[C@H](c1cc2c(c(C(F)(F)F)c1)CN(c1cccc(C3(Cc4nncn4C)COC3)c1)C2=O)N1C[C@H]2C[C@H]2C1 [Compound 541b]"
value_kind = "fold induction at 0.3 µM"
result = "1.31 to 1.5"

[[record]]
molecule = "Cn1cnnc1CC1(c2cccc(NC(=O)c3cc(CN4C[C@@H]5[C@H](C4)C5(F)F)cc(C4CC4)n3)c2)COC1"
value_kind = "fold induction at 0.3 µM"
result = "1.31 to 1.5"

[[record]]
molecule = "Cc1n[nH]c(C)c1-c1cc2c(c(C(F)(F)F)c1)CN(c1cccc(C3(Cc4nncn4C)COC3)c1)C2=O"
value_kind = "fold induction at 0.3 µM"
result = "1.01 to 1.3"

[[record]]
molecule = "C[C@@H](c1cc2c(c(C(F)(F)F)c1)CN(c1cccc(C3(Cc4nncn4C)COC3)c1)C2=O)N1CCC(C)(F)CC1 [Example 553a]"
value_kind = "fold induction at 0.3 µM"
result = "> 1.76"

[[record]]
molecule = "Cn1cnnc1C(F)(F)[C@](C)(F)c1cccc(N2Cc3c(cc(CN4CC[C@H](C#N)C4)cc3C(F)(F)F)C2=O)c1"
value_kind = "fold induction at 0.3 µM"
result = "1.01 to 1.3"


----------
Known IC50 of a selection of molecules
system: Cbl-b (Homo sapiens, UniProt Q13191)
Sequence (Q13191 36-427): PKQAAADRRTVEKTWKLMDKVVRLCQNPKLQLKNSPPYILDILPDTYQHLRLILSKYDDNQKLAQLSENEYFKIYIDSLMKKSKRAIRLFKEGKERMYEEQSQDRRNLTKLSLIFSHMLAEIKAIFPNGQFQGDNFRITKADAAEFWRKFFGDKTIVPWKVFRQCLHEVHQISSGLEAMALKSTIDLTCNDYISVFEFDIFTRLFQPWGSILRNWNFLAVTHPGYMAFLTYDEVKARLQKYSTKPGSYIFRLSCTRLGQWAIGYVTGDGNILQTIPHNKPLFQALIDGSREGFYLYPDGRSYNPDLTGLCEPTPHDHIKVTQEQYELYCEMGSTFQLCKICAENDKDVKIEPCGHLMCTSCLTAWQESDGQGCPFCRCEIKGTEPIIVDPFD
test-method-notes: Cbl-b inhibition assay (Cbl-b activity assay, FRET, Biological Example 1; 100 mM NaCl, 60 nM Src kinase)
Type: biochemical
test-context: upper bound stated in text lists; read-out: IC50 values in the Cbl-b inhibition assay of Biological Example 1
value-kind: IC50

[[record]]
molecule_smiles = "C[C@H](Sc1nncn1C)c1cccc(NC(=O)c2cc(C(F)(F)F)c3ccccc3n2)c1"
system = "Cbl-b (Homo sapiens, UniProt Q13191)"
result = "≤ 10000 nM"

[[record]]
molecule_smiles = "C[C@H](Cc1nncn1C)c1cccc(NC(=O)c2ccnc(C(F)(F)F)n2)c1"
system = "Cbl-b (Homo sapiens, UniProt Q13191)"
result = "≤ 500 nM"

[[record]]
molecule_smiles = "C[C@H](Cc1nncn1C)c1cccc(NC(=O)c2ccc(CO)c(C3CC3)n2)c1"
system = "Cbl-b (Homo sapiens, UniProt Q13191)"
result = "≤ 100 nM"

[[record]]
molecule_smiles = "C[C@H](Sc1nncn1C)c1cccc(NC(=O)c2cc(C(=O)N3C[C@@H](O)C[C@@H]3C)ccn2)c1"
system = "Cbl-b (Homo sapiens, UniProt Q13191)"
result = "≤ 10000 nM"

[[record]]
molecule_smiles = "C[C@H](Cc1nncn1C)c1cccc(N2Cc3c(cc(CN4CC[C@@H](F)C4)cc3C(F)(F)F)C2=O)c1"
system = "Cbl-b (Homo sapiens, UniProt Q13191)"
result = "≤ 100 nM"

[[record]]
molecule_smiles = "CC1=C(c2cc3c(c(C(F)(F)F)c2)CN(c2cccc(C4(Cc5nncn5C)COC4)c2)C3=O)CCO1"
system = "Cbl-b (Homo sapiens, UniProt Q13191)"
result = "≤ 100 nM"

[[record]]
molecule_smiles = "COc1cc(C(=O)Nc2cccc(C3(Cc4nncn4C)COC3)c2)nc(C2CC2)n1"
system = "Cbl-b (Homo sapiens, UniProt Q13191)"
result = "≤ 100 nM"

[[record]]
molecule_smiles = "C[C@H](Sc1nncn1C)c1cccc(NC(=O)c2cc(C(C)(C)O)c(Cl)cn2)c1"
system = "Cbl-b (Homo sapiens, UniProt Q13191)"
result = "≤ 1000 nM"

